Test system: plasma protein
Details: pH 7.4
Each entry below carries its reported Rat.Funbound.plasma.

Reference set, count: 5
Cc1ccccc1O [2-methylphenol] | 0.525
Cc1ccc(O)c(C)c1 [2,4-dimethylphenol] | 0.228
C[C@]12CCC(=O)C=C1CC[C@@H]1[C@@H]2CC[C@@]2(C)[C@H]1CC[C@]2(C)O [17-methyltestosterone, reference compound] | 0.0191
Oc1cc(Cl)c(Cl)cc1Cl [2,4,5-trichlorophenol] | 0
O=C(O)COc1cc(Cl)c(Cl)cc1Cl [2,4,5-trichlorophenoxyacetic acid] | 0.0137

For the next question, use this molecule.
Per the record, O=[N+]([O-])c1ccc(Cl)cc1 [1-chloro-4-nitrobenzene] has Rat.Funbound.plasma of 0.127

====

Tested on: plasma protein
Conditions: 4 h, 5 μM, pH 7.4
Counter-ions that a name gives are not always drawn.
quantityName: Rat.Funbound.plasma
Output: the number by itself.

Reference set, count: 4
C[C@]12CC[C@@H]3c4ccc(O)cc4CC[C@H]3[C@@H]1CCC2=O [Estrone, reference compound] | 0.0442
O=C(c1ccccc1)c1ccc(O)cc1O [2,4-dihydroxybenzophenone] | 0.0188
O=S(=O)(c1ccc(O)cc1)c1ccc(O)cc1 | 0.0711
CC(C)(C)CC(C)(C)c1ccc(O)cc1 | 0

Per the record, CC/C(=C(\c1ccccc1)c1ccc(OCCN(C)C)cc1)c1ccccc1 [Tamoxifen citrate, reference compound] has Rat.Funbound.plasma of 0.0075

Per the record, `O=c1cc(-c2ccc(O)cc2)oc2cc(O)cc(O)c12` has Rat.Funbound.plasma of 0

Per the record, CCOc1ccc(NC(C)=O)cc1 [Phenacetin, reference compound] has Rat.Funbound.plasma of 0.413

Per the record, `COC(=O)c1ccc(O)cc1` has Rat.Funbound.plasma of 0.174

====

For reference, Rat.Clint_uL.min-1_million.cells-1 measured on primary rat hepatocytes:
Give the figure together with its unit, number first.

Reference set, count: 2
CC(Cc1ccc(O)c(O)c1)C(C)Cc1ccc(O)c(O)c1 (centres unmarked) [Nordihydroguaiaretic acid] | 93.1 uL.min-1_million.cells-1
COC(=O)Nc1nc2ccccc2[nH]1 [Methyl 1h-benzimidazol-2-ylcarbamate] | 31.7 uL.min-1_million.cells-1

Measured on primary rat hepatocytes, `Oc1c(Br)cc(Br)cc1Br` has a documented Rat.Clint_uL.min-1_million.cells-1 of 21.5 uL.min-1_million.cells-1

Measured on primary rat hepatocytes, `Cc1ccc([N+](=O)[O-])cc1N` has a documented Rat.Clint_uL.min-1_million.cells-1 of 14.8 uL.min-1_million.cells-1

====

System: plasma protein
Conditions: pH 7.4
quantityName: Rat.Funbound.plasma
Output: the number by itself.

Reference set, count: 10
Clc1cc(Cl)c(Cl)c(Cl)c1Cl | 0
Oc1c(Cl)c(Cl)c(Cl)c(Cl)c1Cl | 0
c1ccc2c(c1)oc1ccccc12 | 0.012
COP(=O)(OC)OC [Trimethyl phosphate] | 0.8835
O=c1c(-c2ccc(O)cc2)coc2cc(O)cc(O)c12 | 0.0085
Cc1ccc([N+](=O)[O-])cc1N | 0.182
CC1=CC(=O)CC(C)(C)C1 | 0.561
O=C1C2(Cl)C3(Cl)C4(Cl)C(Cl)(Cl)C5(Cl)C3(Cl)C1(Cl)C5(Cl)C24Cl (stereo not drawn) | 0.029
CN(C)P(=O)(N(C)C)N(C)C [Hexamethylphosphoramide] | 0.6935
COC(=O)Nc1nc2ccccc2[nH]1 [Methyl 1h-benzimidazol-2-ylcarbamate] | 0.3805

Per the record, ClC1(Cl)C2(Cl)C3(Cl)C4(Cl)C(Cl)(Cl)C5(Cl)C3(Cl)C1(Cl)C5(Cl)C24Cl (stereo not drawn) has Rat.Funbound.plasma of 0

Per the record, C[C@]12CCC(=O)C[C@@H]1CC[C@@H]1[C@@H]2CC[C@]2(C)[C@@H](O)CC[C@@H]12 [5alpha-dihydrotestosterone, reference compound] has Rat.Funbound.plasma of 0.0265

Per the record, `CCCCOC(=O)c1ccc(O)cc1` has Rat.Funbound.plasma of 0.0356

Per the record, `O=C(O)c1ccccc1` has Rat.Funbound.plasma of 0.422

Per the record, ClC1=C(Cl)C2(Cl)C3C4C=CC(C4)C3C1(Cl)C2(Cl)Cl (stereo not drawn) has Rat.Funbound.plasma of 0

Per the record, `CC(Cl)(Cl)C(=O)O` has Rat.Funbound.plasma of 0.864

Per the record, `Cc1cc(Cl)ccc1N` has Rat.Funbound.plasma of 0.1565

Per the record, `O=[N+]([O-])c1cc(C(F)(F)F)c(Cl)c([N+](=O)[O-])c1Nc1ncc(C(F)(F)F)cc1Cl` has Rat.Funbound.plasma of 0

Per the record, `C[C@H]1CCCC(=O)CCC/C=C/c2cc(O)cc(O)c2C(=O)O1` has Rat.Funbound.plasma of 0

Per the record, `CCOP(=S)(OCC)Oc1nc(Cl)c(Cl)cc1Cl` has Rat.Funbound.plasma of 0.0179

Per the record, ClC1C(Cl)C(Cl)C(Cl)C(Cl)C1Cl (stereo not drawn) has Rat.Funbound.plasma of 0.009

Per the record, `C=C1C[C@]23C[C@@]1(O)CC[C@H]2[C@@]12C=C[C@H](O)[C@@](C)(C(=O)O1)[C@H]2[C@@H]3C(=O)O` has Rat.Funbound.plasma of 0.8015

Per the record, `O=[N+]([O-])c1ccc(O)c([N+](=O)[O-])c1` has Rat.Funbound.plasma of 0.031

Per the record, `Oc1c(Br)cc(Br)cc1Br` has Rat.Funbound.plasma of 0
